Attribution: ChEMBL document CHEMBL1142436

# Tested on: TK-10
# protocol_details: Growth inhibition of human TK10 cells after 48 hrs
# Assay type: functional
# cond: TK-10, 48 h
observed_property: GI50

## Task Fill blank: measured GI50 of the compound "Cn1c2ccccc2c2c(=O)n(CCCC(=O)N(C(=O)NC3CCCCC3)C3CCCCC3)c3c(-c4ccccc4)nnn3c21" is ____.
## Result > 100 µM

## Task Thanks! And COC(=O)C(Cc1c[nH]cn1)NC(=O)CNC(=O)CCCn1c(=O)c2c3ccccc3n(C)c2n2nnc(-c3ccccc3)c12 (stereo not drawn) ?
## Result > 100 µM

## Task Thanks! And "Cn1c2ccccc2c2c(=O)n(CCCC(=O)NCC(=O)N(C(=O)NC3CCCCC3)C3CCCCC3)c3c(-c4ccccc4)nnn3c21" ?
## Result > 100 µM

----------
# System: Malme-3M
# protocol_details: Growth inhibition of human MALME3M cells after 48 hrs
# Format: functional
Below is a list of entries, each paired with its recorded GI50 value.

Some entries whose results are on file:
INSERT INTO assay_data (compound, result) VALUES
  ('Cn1c2ccccc2c2c(=O)n(CCCC(=O)N(C(=O)NC3CCCCC3)C3CCCCC3)c3c(-c4ccccc4)nnn3c21', '> 100 µM'),
  ('CCOC(=O)CNC(=O)CCCn1c(=O)c2c3ccccc3n(C)c2n2nnc(-c3ccccc3)c12', '> 50.1 µM');

Attention now shifts to the item below.
## Task Which measured GI50 belongs to COC(=O)C(Cc1c[nH]cn1)NC(=O)CNC(=O)CCCn1c(=O)c2c3ccccc3n(C)c2n2nnc(-c3ccccc3)c12 (stereo not drawn) , tested on Malme-3M?
## Result > 100 µM

----------
Below is a list of entries, each paired with its recorded GI50 value.
# Test system: EKVX
# protocol_details: Growth inhibition of human EKVX cells after 48 hrs
# Format: functional

Some entries whose results are on file:
INSERT INTO measurements (compound, observed_property, result) VALUES
  ('COC(=O)C(Cc1c[nH]cn1)NC(=O)CNC(=O)CCCn1c(=O)c2c3ccccc3n(C)c2n2nnc(-c3ccccc3)c12 (stereo not drawn)', 'GI50', '> 100 µM'),
  ('Cn1c2ccccc2c2c(=O)n(CCCC(=O)N(C(=O)NC3CCCCC3)C3CCCCC3)c3c(-c4ccccc4)nnn3c21', 'GI50', '> 100 µM');

Attention now shifts to the item below.
## Task Fill blank: measured GI50 of the compound "CCOC(=O)CNC(=O)CCCn1c(=O)c2c3ccccc3n(C)c2n2nnc(-c3ccccc3)c12" is ____.
## Result > 50.1 µM
